Molecular target: PIK3CB (human) (UniProt P42338)
Sequence (P42338 whole entry, looked up): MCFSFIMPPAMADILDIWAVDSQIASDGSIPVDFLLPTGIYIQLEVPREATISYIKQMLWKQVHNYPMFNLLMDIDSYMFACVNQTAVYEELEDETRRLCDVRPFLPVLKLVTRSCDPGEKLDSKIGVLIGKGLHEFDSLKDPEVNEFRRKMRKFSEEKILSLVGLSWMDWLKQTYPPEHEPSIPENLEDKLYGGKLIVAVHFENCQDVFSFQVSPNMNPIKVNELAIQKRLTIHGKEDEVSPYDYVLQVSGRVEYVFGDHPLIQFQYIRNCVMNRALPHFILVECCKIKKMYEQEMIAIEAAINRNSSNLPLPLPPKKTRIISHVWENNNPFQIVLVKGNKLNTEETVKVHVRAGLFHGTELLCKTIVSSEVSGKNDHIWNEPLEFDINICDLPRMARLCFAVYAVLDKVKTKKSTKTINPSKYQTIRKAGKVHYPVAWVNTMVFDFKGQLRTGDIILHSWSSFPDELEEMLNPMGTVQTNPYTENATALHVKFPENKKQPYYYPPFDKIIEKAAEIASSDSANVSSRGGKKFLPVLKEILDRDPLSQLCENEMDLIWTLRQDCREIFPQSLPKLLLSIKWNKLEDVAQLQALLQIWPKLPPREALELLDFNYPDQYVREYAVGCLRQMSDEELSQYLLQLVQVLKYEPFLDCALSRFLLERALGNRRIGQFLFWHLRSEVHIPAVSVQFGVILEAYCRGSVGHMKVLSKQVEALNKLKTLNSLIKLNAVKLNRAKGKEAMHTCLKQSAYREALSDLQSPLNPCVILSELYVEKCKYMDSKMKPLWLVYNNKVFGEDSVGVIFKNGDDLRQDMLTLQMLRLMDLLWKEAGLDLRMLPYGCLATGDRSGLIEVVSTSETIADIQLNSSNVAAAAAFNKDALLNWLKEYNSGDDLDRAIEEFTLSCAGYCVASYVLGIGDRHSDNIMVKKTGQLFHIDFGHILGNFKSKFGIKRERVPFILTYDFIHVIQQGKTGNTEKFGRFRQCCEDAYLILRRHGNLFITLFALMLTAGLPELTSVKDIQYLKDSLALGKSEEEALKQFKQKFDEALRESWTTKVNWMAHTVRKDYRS
Assay: KINOMEscan competition binding
Conditions: compound 10.0 µM
Give measured kinase still bound, per cent of control for each item. Keep answers brief.
Give bare numbers, in %.

// below: answered molecules
Smiles repr	kinase still bound, per cent of control [%]
CS(=O)(=O)N1CCN(Cc2cc3nc(-c4cccc5[nH]ncc45)nc(N4CCOCC4)c3s2)CC1	0.1
CCN(CC)CCCCNc1ncc2c(n1)N(C)C(=O)N(c1c(Cl)c(OC)cc(OC)c1Cl)C2	100

Hello, I would appreciate it if you could give kinase still bound, per cent of control for each entry below.
1. COc1ccc(N(C(=O)Oc2c(C)cccc2C)c2ccnc(Nc3ccc(N4CCN(C)CC4)cc3)n2)c(OC)c1
2. O=C1NC(=O)/C(=C/c2ccc3nccc(-c4ccncc4)c3c2)S1
3. CNC(=O)c1cc(Oc2ccc(NC(=O)Nc3ccc(Cl)c(C(F)(F)F)c3)cc2)ccn1
4. C=CC(=O)Nc1ccc(CN(C(=O)Nc2c(Cl)c(OC)cc(OC)c2Cl)c2cc(Nc3ccc(N4CCN(C)CC4)cc3)ncn2)cc1

// result
100
7.1
100
100

Hello, I would appreciate it if you could give kinase still bound, per cent of control for each entry below.
1. C=CC(=O)Nc1cc(-n2c(=O)ccc3cnc4ccc(-c5cn[nH]c5)cc4c32)ccc1C
2. O=C(Nc1cccc(Nc2ncc(Br)c(NCCc3cnc[nH]3)n2)c1)N1CCCC1
3. CCN1CCN(C(=O)Cc2ccc(Nc3ncc(F)c(Nc4ccc(C(=O)Nc5ccccc5Cl)cc4)n3)cc2)CC1

// result
[62, 100, 83]

Hello, I would appreciate it if you could give kinase still bound, per cent of control for each entry below.
1. CN(C)C/C=C/C(=O)Nc1ccc(C(=O)Nc2cccc(Nc3nccc(-c4cccnc4)n3)c2)cc1
2. N#CCNC(=O)c1ccc(-c2ccnc(Nc3ccc(N4CCOCC4)cc3)n2)cc1
3. COc1cc(C(=O)N2CCC(N3CCN(C)CC3)CC2)ccc1Nc1ncc2c(n1)N(C)c1ccccc1C(=O)N2C
4. COc1cc2ncnc(-n3nc(-c4ccccn4)nc3N)c2cc1OC
5. COc1cc2ncn(-c3cc(OCc4ccccc4C(F)(F)F)c(C(N)=O)s3)c2cc1OC
6. CNC(=O)c1ccc(Nc2cc(Nc3ccccc3S(=O)(=O)C(C)C)c3cc[nH]c3n2)nc1
7. COc1cc(N2CCN(C)CC2)ccc1Nc1ncc2c(n1)N(C)c1ccccc1C(=O)N2C

// result
1: 100; 2: 100; 3: 96; 4: 5; 5: 54; 6: 100; 7: 100

----------
Give measured kinase still bound, per cent of control for each item. Keep answers brief.
Target: MAK (human)
Assay: KINOMEscan competition binding
Settings: compound 10.0 µM
One number for each entry, in %.

Hello, I would appreciate it if you could give kinase still bound, per cent of control for each entry below.
1. COc1ccc(N(C(=O)Oc2c(C)cccc2C)c2ccnc(Nc3ccc(N4CCN(C)CC4)cc3)n2)c(OC)c1
2. NC(=O)Nc1cc(-c2cccc(F)c2)sc1C(=O)N[C@@H]1CCCNC1
3. COc1cc(C(=O)N2CCC(N3CCN(C)CC3)CC2)ccc1Nc1ncc2c(n1)N(C)c1ccccc1C(=O)N2C
4. COc1cc2ncn(-c3cc(OCc4ccccc4C(F)(F)F)c(C(N)=O)s3)c2cc1OC

// result
69
100
72
100

----------
Target: STK32B (human)
Experiment: KINOMEscan competition binding
Details: compound 10.0 µM
Measurement type: kinase still bound, per cent of control

// below: answered molecules
Smiles repr	kinase still bound, per cent of control
COCC(=O)NC/C=C/c1ccc2ncnc(Nc3ccc(Oc4ccc(C)nc4)c(C)c3)c2c1	92%
N#CCNC(=O)c1ccc(-c2ccnc(Nc3ccc(N4CCOCC4)cc3)n2)cc1	93%
CCN(CC)CCCCNc1ncc2cc(-c3cc(OC)cc(OC)c3)c(NC(=O)NC(C)(C)C)nc2n1	100%
COc1cc2ncn(-c3cc(OCc4ccccc4C(F)(F)F)c(C(N)=O)s3)c2cc1OC	100%

Now turn to the next molecule.
// query Reported kinase still bound, per cent of control, molecule C=CC(=O)Nc1cc(-n2c(=O)ccc3cnc4ccc(-c5cn[nH]c5)cc4c32)ccc1C : ____
// result 100%

----------
Target: FGFR3 (human)
Test: KINOMEscan competition binding
Details: compound 10.0 µM
Measurement type: kinase still bound, per cent of control (%)
Numbers only, in %.

// below: answered molecules
Smiles repr	kinase still bound, per cent of control [%]
O=C(Nc1cccc(Nc2ncc(Br)c(NCCc3cnc[nH]3)n2)c1)N1CCCC1	1
CCN(CC)CCCCNc1ncc2cc(-c3cc(OC)cc(OC)c3)c(NC(=O)NC(C)(C)C)nc2n1	0.05
COCC(=O)NC/C=C/c1ccc2ncnc(Nc3ccc(Oc4ccc(C)nc4)c(C)c3)c2c1	100

// query Reported kinase still bound, per cent of control, molecule CNC(=O)c1ccc(Nc2cc(Nc3ccccc3S(=O)(=O)C(C)C)c3cc[nH]c3n2)nc1 : ____
// result 18

----------
Biological target: CSNK2A2 (human) (UniProt P19784)
Sequence (P19784 whole entry, looked up): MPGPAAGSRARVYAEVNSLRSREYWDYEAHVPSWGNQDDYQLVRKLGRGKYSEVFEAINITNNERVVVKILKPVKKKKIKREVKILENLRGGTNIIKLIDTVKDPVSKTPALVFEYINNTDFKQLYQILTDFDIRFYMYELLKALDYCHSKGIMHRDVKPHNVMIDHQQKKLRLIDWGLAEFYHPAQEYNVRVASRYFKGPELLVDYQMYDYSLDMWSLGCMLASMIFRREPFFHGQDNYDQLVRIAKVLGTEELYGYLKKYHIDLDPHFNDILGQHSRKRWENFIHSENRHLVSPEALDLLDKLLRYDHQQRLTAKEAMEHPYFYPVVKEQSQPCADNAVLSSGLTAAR
Assay: KINOMEscan competition binding
Conditions: compound 10.0 µM
Strictly below 10% in kinase still bound, per cent of control: 1 (yes). Otherwise: 0 (no).

Smiles repr	Assigned category
COc1cc(N2CCN(C)CC2)ccc1Nc1ncc2c(n1)N(C)c1ccccc1C(=O)N2C	0 (no)

// query Does COc1cc2ncn(-c3cc(OCc4ccccc4C(F)(F)F)c(C(N)=O)s3)c2cc1OC have kinase still bound, per cent of control strictly under 10%?
// result 0 (no)

// query Does O=c1cc(N2CCOCC2)oc2c(-c3cccc4c3sc3ccccc34)cccc12 have kinase still bound, per cent of control strictly under 10%?
// result 0 (no)

----------
Molecular target: EIF2AK1 (human) (UniProt Q9BQI3)
Sequence (Q9BQI3 whole entry, looked up): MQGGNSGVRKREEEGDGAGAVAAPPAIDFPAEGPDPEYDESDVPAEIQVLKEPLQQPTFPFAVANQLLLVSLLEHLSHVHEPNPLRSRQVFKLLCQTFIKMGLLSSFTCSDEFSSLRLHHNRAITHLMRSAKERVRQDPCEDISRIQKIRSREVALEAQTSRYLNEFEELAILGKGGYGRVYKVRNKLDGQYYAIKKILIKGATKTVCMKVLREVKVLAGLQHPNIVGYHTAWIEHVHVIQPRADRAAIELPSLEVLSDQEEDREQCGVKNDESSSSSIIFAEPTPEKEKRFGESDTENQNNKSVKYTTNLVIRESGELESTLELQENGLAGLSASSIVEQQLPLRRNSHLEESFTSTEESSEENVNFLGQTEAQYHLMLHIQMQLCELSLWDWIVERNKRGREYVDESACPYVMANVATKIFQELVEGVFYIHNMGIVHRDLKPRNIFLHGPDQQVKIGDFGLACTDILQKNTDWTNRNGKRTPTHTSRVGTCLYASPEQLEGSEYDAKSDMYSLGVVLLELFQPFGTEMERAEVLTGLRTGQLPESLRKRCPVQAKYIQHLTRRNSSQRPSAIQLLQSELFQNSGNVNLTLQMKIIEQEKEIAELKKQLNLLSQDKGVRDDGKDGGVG
Assay: KINOMEscan competition binding
Details: compound 10.0 µM
Measurement type: kinase still bound, per cent of control (%)
Answers are plain numbers, in %.

// below: answered molecules
Smiles repr	kinase still bound, per cent of control, %
COCC(=O)NC/C=C/c1ccc2ncnc(Nc3ccc(Oc4ccc(C)nc4)c(C)c3)c2c1	100
CNC(=O)c1cc(Oc2ccc(NC(=O)Nc3ccc(Cl)c(C(F)(F)F)c3)cc2)ccn1	57
O=C(Nc1cccc(Nc2ncc(Br)c(NCCc3cnc[nH]3)n2)c1)N1CCCC1	100
COc1cc2ncnc(-n3nc(-c4ccccn4)nc3N)c2cc1OC	51
COc1cc(C(=O)N2CCC(N3CCN(C)CC3)CC2)ccc1Nc1ncc2c(n1)N(C)c1ccccc1C(=O)N2C	100
CCN1CCN(C(=O)Cc2ccc(Nc3ncc(F)c(Nc4ccc(C(=O)Nc5ccccc5Cl)cc4)n3)cc2)CC1	66
CN(C)C/C=C/C(=O)Nc1ccc(C(=O)Nc2cccc(Nc3nccc(-c4cccnc4)n3)c2)cc1	100
O=c1cc(N2CCOCC2)oc2c(-c3cccc4c3sc3ccccc34)cccc12	100

Now turn to the next molecule.
// query Reported kinase still bound, per cent of control, molecule NC(=O)Nc1cc(-c2cccc(F)c2)sc1C(=O)N[C@@H]1CCCNC1 : ____
// result 88

----------
Target: CDK9 (human) (UniProt P50750)
Sequence (P50750 whole entry, looked up): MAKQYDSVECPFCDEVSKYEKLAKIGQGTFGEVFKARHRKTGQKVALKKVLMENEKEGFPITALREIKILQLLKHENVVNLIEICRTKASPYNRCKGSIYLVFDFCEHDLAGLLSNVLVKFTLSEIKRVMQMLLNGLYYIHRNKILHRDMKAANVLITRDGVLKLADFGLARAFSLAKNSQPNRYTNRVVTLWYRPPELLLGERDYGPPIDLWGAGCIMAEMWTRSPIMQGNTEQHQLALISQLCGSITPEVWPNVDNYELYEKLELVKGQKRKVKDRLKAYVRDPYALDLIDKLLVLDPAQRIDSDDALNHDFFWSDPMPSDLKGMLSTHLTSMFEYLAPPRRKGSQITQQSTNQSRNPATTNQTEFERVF
Experiment: KINOMEscan competition binding
Conditions: compound 10.0 µM
Measurement type: kinase still bound, per cent of control (%)
One number for each entry, in %.

// below: answered compounds
Smiles repr	Recorded value
C[C@@H](Oc1cc(-c2cnn(C3CCNCC3)c2)cnc1N)c1c(Cl)ccc(F)c1Cl	88
CS(=O)(=O)N1CCN(Cc2cc3nc(-c4cccc5[nH]ncc45)nc(N4CCOCC4)c3s2)CC1	100

Hello, I would appreciate it if you could give kinase still bound, per cent of control for each entry below.
1. N#CCNC(=O)c1ccc(-c2ccnc(Nc3ccc(N4CCOCC4)cc3)n2)cc1
2. COc1cc(C(=O)N2CCC(N3CCN(C)CC3)CC2)ccc1Nc1ncc2c(n1)N(C)c1ccccc1C(=O)N2C

// result
1. 55
2. 100

Hello, I would appreciate it if you could give kinase still bound, per cent of control for each entry below.
1. COc1cc2ncnc(-n3nc(-c4ccccn4)nc3N)c2cc1OC
2. CN(C)C/C=C/C(=O)Nc1ccc(C(=O)Nc2cccc(Nc3nccc(-c4cccnc4)n3)c2)cc1
3. CCN1CCN(C(=O)Cc2ccc(Nc3ncc(F)c(Nc4ccc(C(=O)Nc5ccccc5Cl)cc4)n3)cc2)CC1
4. CCN(CC)CCCCNc1ncc2c(n1)N(C)C(=O)N(c1c(Cl)c(OC)cc(OC)c1Cl)C2
5. COCC(=O)NC/C=C/c1ccc2ncnc(Nc3ccc(Oc4ccc(C)nc4)c(C)c3)c2c1

// result
76
90
73
100
100

----------
Biological target: GSK3A (human) (UniProt P49840)
Sequence (P49840 whole entry, looked up): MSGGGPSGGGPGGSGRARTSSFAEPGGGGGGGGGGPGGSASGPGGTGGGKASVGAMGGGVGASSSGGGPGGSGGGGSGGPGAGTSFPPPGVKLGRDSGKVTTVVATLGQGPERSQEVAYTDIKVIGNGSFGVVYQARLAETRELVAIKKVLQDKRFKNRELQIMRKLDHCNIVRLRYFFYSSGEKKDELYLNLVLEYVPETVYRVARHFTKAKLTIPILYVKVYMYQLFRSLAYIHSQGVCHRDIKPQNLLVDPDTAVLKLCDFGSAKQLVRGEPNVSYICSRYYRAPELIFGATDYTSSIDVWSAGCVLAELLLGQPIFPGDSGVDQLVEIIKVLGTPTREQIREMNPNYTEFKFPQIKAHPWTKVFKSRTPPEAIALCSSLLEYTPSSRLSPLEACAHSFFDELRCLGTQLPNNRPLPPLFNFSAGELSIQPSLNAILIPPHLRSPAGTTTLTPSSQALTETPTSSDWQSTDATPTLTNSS
Experiment: KINOMEscan competition binding
Conditions: compound 10.0 µM
Measurement type: kinase still bound, per cent of control (%)
Give bare numbers, in %.

// below: answered compounds
Smiles repr	Measurement type	Units label	Recorded value
CCN1CCN(C(=O)Cc2ccc(Nc3ncc(F)c(Nc4ccc(C(=O)Nc5ccccc5Cl)cc4)n3)cc2)CC1	kinase still bound, per cent of control	%	88
C=CC(=O)Nc1ccc(CN(C(=O)Nc2c(Cl)c(OC)cc(OC)c2Cl)c2cc(Nc3ccc(N4CCN(C)CC4)cc3)ncn2)cc1	kinase still bound, per cent of control	%	100
COc1cc2ncn(-c3cc(OCc4ccccc4C(F)(F)F)c(C(N)=O)s3)c2cc1OC	kinase still bound, per cent of control	%	100
CNC(=O)c1ccc(Nc2cc(Nc3ccccc3S(=O)(=O)C(C)C)c3cc[nH]c3n2)nc1	kinase still bound, per cent of control	%	18
O=C(Nc1cccc(Nc2ncc(Br)c(NCCc3cnc[nH]3)n2)c1)N1CCCC1	kinase still bound, per cent of control	%	60
CCN(CC)CCCCNc1ncc2c(n1)N(C)C(=O)N(c1c(Cl)c(OC)cc(OC)c1Cl)C2	kinase still bound, per cent of control	%	100
C[C@@H](Oc1cc(-c2cnn(C3CCNCC3)c2)cnc1N)c1c(Cl)ccc(F)c1Cl	kinase still bound, per cent of control	%	100
NC(=O)Nc1cc(-c2cccc(F)c2)sc1C(=O)N[C@@H]1CCCNC1	kinase still bound, per cent of control	%	100

Now turn to the next compound.
// query Reported kinase still bound, per cent of control, compound COc1ccc(N(C(=O)Oc2c(C)cccc2C)c2ccnc(Nc3ccc(N4CCN(C)CC4)cc3)n2)c(OC)c1 : ____
// result 100
